study.system: T1, human CD98, endogenously expressed on Molt-4 human acute lymphoblastic leukemia cells (human)
T1 chain: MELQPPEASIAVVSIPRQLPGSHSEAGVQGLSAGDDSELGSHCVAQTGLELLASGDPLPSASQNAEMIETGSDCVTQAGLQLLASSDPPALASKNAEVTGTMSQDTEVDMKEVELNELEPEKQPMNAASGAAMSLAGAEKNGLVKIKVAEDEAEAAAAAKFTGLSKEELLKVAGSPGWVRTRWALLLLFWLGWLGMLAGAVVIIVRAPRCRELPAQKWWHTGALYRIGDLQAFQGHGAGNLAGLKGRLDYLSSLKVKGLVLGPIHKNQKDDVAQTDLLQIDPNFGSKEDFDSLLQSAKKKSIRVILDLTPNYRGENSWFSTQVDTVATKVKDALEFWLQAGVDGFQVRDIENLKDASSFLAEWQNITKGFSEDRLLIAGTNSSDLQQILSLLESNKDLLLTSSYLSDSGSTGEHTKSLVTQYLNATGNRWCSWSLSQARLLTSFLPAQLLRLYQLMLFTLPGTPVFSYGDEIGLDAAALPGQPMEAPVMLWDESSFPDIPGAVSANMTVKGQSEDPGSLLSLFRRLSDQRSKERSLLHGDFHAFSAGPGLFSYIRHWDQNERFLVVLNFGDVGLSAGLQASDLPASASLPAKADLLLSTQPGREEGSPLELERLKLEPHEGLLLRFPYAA
measurement.protocol: cell-based or functional assay
Measured % Cell Viability at 50 nM, listed per entry for reference.
endpoint: % Cell Viability at 50 nM (%)

binder: CD98 (CL-huAb102)-AAD (antibody, human IgG1, kappa, L234A L235A, V domains shown, synthon AAD on reduced interchain cysteines (sites not given)) VH: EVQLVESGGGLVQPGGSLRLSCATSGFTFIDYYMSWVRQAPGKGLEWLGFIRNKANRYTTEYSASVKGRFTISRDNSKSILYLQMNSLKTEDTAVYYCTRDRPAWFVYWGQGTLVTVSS VL: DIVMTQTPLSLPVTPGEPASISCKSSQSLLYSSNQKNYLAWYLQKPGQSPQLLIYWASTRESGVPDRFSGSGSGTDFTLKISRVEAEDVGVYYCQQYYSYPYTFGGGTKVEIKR
quantity.unit: %
observed.measurement: 2.2
//
binder: CD98 (CL-huAb108)-TX (antibody, human IgG1, kappa, L234A L235A, V domains shown, synthon TX on reduced interchain cysteines (sites not given)) VH: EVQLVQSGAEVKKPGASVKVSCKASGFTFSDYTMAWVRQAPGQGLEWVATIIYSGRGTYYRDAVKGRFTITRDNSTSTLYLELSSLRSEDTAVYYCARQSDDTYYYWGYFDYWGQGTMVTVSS VL: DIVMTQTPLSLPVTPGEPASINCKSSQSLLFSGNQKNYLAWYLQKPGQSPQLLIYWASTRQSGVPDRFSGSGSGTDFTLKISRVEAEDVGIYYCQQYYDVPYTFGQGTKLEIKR
quantity.unit: %
observed.measurement: 3
//
binder: CD98 (CL-huAb108)-ZT (antibody, human IgG1, kappa, L234A L235A, V domains shown, synthon ZT on reduced interchain cysteines (sites not given)) VH: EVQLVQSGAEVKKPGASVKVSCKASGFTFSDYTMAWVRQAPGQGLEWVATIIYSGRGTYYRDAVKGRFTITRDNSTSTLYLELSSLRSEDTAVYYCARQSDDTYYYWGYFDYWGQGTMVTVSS VL: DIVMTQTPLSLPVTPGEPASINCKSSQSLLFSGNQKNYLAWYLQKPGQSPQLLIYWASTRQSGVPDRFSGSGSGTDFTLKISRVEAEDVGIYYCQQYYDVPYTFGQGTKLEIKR
quantity.unit: %
observed.measurement: 4.5
//
binder: CD98 (CL-huAb102)-WD (antibody, human IgG1, kappa, L234A L235A, V domains shown, synthon WD on reduced interchain cysteines (sites not given)) VH: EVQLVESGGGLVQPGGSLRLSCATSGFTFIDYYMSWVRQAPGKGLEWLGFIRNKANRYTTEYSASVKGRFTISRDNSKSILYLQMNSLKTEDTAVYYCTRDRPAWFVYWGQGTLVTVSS VL: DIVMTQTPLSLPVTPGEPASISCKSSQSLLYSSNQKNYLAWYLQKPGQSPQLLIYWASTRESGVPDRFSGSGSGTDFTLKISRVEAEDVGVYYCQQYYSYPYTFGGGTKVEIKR
quantity.unit: %
observed.measurement: 14.3
